Values were extracted from ChEMBL document CHEMBL3045789.

Test: Plasma protein binding in Rattus norvegicus (rat)
Format: ADME, cell-free
Conditions: read-out: PPB (converted)
ATTRIBUTE_MEASURED: fraction unbound
Would you mind answering with just the numeric figure?

I would be grateful if you could share the reported fraction unbound for COc1ccc2c(n1)C1(CO2)C(=O)N(Cc2ccc(C(F)(F)F)o2)c2ccccc21 (stereo unspecified) .
0.05

----------
Assay: Terminal half life in Sprague-Dawley Rattus norvegicus (rat) at 1 mg/kg, iv
Type: ADME, organism-based
Set-up: dose 1 mg/kg, route intravenous
Conditions: in vivo, read-out: beta t1/2 (converted)
ATTRIBUTE_MEASURED: half-life (h)
Please respond with the number in h and leave the unit unwritten.

I would be grateful if you could share the reported half-life for COc1ccc2c(n1)C1(CO2)C(=O)N(Cc2ccc(C(F)(F)F)o2)c2ccccc21 (stereo unspecified) .
1.9

----------
Assay: Volume of distribution at steady state in Sprague-Dawley Rattus norvegicus (rat) at 1 mg/kg, iv
Type: ADME, organism-based
Set-up: dose 1 mg/kg, route intravenous
Conditions: in vivo, read-out: Vdss
ATTRIBUTE_MEASURED: Vd
Reply with the number, then its unit.

I would be grateful if you could share the reported Vd for COc1ccc2c(n1)C1(CO2)C(=O)N(Cc2ccc(C(F)(F)F)o2)c2ccccc21 (stereo unspecified) .
4.1 L/kg

----------
Target: Sodium channel protein type 9 subunit alpha (Homo sapiens)
Sequence (Q15858 whole entry): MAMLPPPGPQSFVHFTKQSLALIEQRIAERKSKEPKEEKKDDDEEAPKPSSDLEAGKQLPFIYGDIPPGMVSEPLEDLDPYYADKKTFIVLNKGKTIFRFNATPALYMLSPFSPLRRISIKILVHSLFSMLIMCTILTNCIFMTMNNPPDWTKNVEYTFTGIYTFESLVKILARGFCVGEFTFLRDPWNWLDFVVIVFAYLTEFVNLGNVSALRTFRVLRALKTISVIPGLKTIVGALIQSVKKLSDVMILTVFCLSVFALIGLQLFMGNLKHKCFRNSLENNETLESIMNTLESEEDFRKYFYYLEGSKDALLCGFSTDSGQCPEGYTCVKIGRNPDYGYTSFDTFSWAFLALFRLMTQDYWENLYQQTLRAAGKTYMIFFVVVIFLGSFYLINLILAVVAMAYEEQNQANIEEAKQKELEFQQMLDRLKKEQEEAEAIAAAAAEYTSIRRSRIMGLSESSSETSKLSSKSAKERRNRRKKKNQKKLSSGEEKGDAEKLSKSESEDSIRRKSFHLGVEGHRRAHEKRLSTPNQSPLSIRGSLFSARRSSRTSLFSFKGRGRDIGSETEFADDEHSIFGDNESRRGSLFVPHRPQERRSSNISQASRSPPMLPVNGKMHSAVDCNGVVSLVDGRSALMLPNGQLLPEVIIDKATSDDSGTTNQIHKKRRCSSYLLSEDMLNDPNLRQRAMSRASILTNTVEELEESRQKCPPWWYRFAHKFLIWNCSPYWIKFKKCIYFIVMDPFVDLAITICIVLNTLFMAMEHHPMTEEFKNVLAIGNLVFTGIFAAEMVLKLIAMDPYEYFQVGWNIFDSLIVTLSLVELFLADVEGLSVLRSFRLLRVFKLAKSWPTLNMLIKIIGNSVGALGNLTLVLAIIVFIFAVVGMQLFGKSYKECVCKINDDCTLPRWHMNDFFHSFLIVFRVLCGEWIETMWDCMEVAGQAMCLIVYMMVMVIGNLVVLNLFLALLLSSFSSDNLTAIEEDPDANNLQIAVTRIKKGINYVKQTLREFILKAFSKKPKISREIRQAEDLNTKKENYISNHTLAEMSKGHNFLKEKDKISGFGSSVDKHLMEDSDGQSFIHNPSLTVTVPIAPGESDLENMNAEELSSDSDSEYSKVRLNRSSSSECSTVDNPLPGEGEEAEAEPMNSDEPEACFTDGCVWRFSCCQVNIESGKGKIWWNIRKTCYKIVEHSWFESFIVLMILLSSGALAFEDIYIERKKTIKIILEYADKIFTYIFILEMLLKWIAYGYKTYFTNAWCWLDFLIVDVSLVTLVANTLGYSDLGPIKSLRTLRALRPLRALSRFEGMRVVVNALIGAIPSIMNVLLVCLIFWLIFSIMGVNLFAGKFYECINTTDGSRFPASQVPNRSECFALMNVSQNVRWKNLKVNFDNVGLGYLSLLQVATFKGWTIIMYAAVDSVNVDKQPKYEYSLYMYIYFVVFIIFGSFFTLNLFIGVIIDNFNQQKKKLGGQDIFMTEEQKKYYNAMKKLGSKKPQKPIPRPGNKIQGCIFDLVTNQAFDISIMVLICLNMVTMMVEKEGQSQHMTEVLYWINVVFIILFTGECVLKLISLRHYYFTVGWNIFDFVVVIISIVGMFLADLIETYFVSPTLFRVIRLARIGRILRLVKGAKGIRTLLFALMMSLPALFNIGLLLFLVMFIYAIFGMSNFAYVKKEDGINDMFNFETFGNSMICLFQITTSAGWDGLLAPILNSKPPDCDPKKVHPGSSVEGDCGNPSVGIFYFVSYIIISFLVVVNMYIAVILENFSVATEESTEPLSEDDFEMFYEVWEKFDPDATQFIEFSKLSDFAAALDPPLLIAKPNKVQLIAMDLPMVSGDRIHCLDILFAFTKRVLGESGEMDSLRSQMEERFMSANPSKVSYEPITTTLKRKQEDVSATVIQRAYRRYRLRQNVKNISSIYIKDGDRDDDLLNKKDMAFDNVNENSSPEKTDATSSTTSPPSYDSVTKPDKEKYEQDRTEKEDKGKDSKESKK
Assay: Inhibition of Homo sapiens (human) NaV1.7 expressed in HEK293 cells assessed as decrease in [14C]guanidinium influx after 2 hr by liquid scintillation counting analysis
pIC50: −log10 of the molar value.
Everything with pIC50 lower than 7 is No; everything else, including exactly 7, is Yes.

Hi team, for COc1cc2c(cn1)OCC21C(=O)N(Cc2ccc(C(F)(F)F)o2)c2ccccc21 (stereo unspecified) , is the recorded pIC50 at or above 7?
Yes

Next record, please: O=C1N(Cc2ccccn2)c2ccccc2C12COc1cc(F)c(F)cc12 (stereo unspecified)
No

Next record, please: CCCCCN1C(=O)C2(COc3cc(OC)ccc32)c2ccccc21 (stereo unspecified)
Yes

Next record, please: COc1cc2c(cc1F)OCC21C(=O)N(Cc2ccccn2)c2ccccc21 (stereo unspecified)
No

Next record, please: COc1ccc2c(n1)C1(CO2)C(=O)Nc2ccccc21 (stereo unspecified)
No

Next record, please: Cc1cc2c(cc1C)C1(CO2)C(=O)N(Cc2ccccn2)c2ccccc21 (stereo unspecified)
No

Next record, please: COc1ccc2c(n1)C1(CO2)C(=O)N(Cc2ccc(Cl)s2)c2ccccc21 (stereo unspecified)
Yes

Next record, please: COc1cc2c(cn1)OCC21C(=O)N(C[C@H]2CCCO2)c2ccccc21 (stereo partly specified)
Yes

Next record, please: COc1ccc2c(n1)C1(CO2)C(=O)N(Cc2ccccn2)c2ccccc21 (stereo unspecified)
No

Next record, please: COc1cc2c(cn1)OCC21C(=O)Nc2ccccc21 (stereo unspecified)
No

Next record, please: COc1ccc2c(n1)C1(CO2)C(=O)N(Cc2ncccc2C(F)(F)F)c2ccccc21 (stereo unspecified)
No

----------
Assay: Cytotoxicity against Homo sapiens (human) HepG2 cells assessed as cell viability after 16 hr
Assay type: cell-based
Details: read-out: Activity
ATTRIBUTE_MEASURED: viability at 16 h

I would be grateful if you could share the reported viability at 16 h for COc1ccc2c(n1)C1(CO2)C(=O)N(Cc2ccc(C(F)(F)F)o2)c2ccccc21 (stereo unspecified) .
> 96%
